# Experimental System: human LPA1 (Homo sapiens)
# Construct: the full-length cDNA for human LPA1 was obtained by PCR of the reverse transcription reaction
# Sequence (Q92633 whole entry): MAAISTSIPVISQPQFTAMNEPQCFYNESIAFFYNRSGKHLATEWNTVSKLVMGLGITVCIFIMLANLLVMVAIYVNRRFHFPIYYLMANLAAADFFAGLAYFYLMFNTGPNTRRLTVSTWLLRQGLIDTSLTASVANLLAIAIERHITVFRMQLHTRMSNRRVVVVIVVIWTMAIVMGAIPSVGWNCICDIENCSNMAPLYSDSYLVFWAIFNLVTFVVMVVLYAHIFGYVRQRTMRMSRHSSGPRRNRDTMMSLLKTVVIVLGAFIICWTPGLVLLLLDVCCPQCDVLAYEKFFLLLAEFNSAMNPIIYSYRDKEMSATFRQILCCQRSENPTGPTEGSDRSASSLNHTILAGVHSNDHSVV
# Procedure Details: LPA1 calcium flux assay (HLPA1 Ca Flux)
# Experimental Parameters: CHO cells stably expressing human LPA1, stimulated with 10 nM LPA
pIC50: −log10 of the molar value.
Exercise: for every item that follows, state its recorded pIC50.

In plain terms, Cc1noc(-c2ccc(-c3ccc(C4(C(=O)O)CC4)cc3)cc2)c1C(O)CNCc1ccccc1 (stereo not shown) has a documented pIC50 of > 6.52

In plain terms, `Cc1noc(-c2ccc(-c3ccc(C4(C(=O)O)CC4)cc3)cc2)c1CCOCc1ccc(Cl)cc1` has a documented pIC50 of > 6.52

In plain terms, Cc1noc(-c2ccc(-c3ccc(C4(C(=O)O)CC4)cc3)cc2)c1C(O)CCCc1ccccc1C(F)(F)F (stereo not shown) has a documented pIC50 of > 6.52

In plain terms, `Cc1noc(-c2ccc(-c3ccc(C4(C(=O)O)CC4)cc3)cc2)c1CNCCc1ccccc1` has a documented pIC50 of 6.00 to 6.52

In plain terms, Cc1noc(-c2ccc(-c3ccc(C4(C(=O)O)CC4)cc3)cc2)c1COC(C)Cc1ccccc1 (stereo not shown) has a documented pIC50 of > 6.52

In plain terms, Cc1ccc(S(=O)(=O)NC(=O)C2(c3ccc(-c4ccc(-c5onc(C)c5C(O)CCCc5ccccc5)cc4)cc3)CC2)cc1 (stereo not shown) has a documented pIC50 of > 6.52

In plain terms, `Cc1noc(-c2ccc(-c3ccc(C4(C(=O)O)CC4)cc3)cc2)c1CNC[C@H](C)c1ccccc1` has a documented pIC50 of > 6.52
